viability at 28.5 h, 10 µM values for the molecules below.
experiment: in vitro; conditions: human, hela cells, % viability
Please give a number only; it is taken to be in %.

Recorded results for 3 molecules are shown here.
CCCCC(c1cccnc1)N(C)C(=O)Cn1ccccc1=O (stereo not drawn) [CBK306936]
104
CN(C)C(=O)c1ccc(-c2ncc(OCCN3CCOCC3)nc2N)cc1 [CBK145183]
93.1
O=C(c1cccs1)N1CCC(n2c(=O)oc3ccccc32)CC1 [CBK284347]
88.2

Which viability at 28.5 h, 10 µM reading was recorded for the molecule O=S(=O)(Nc1ncc(Br)c2cccnc12)c1ccc(Cl)c(Cl)c1 [CBK073888] ?
89.5

I am curious: what viability at 28.5 h, 10 µM value has been reported for CC(C)CNC(=O)N1CCNC(=O)C1 [CBK155864] ?
86.4

Query: viability at 28.5 h, 10 µM; subject: c1ccc(CSc2nnc(COc3cccc4ccccc34)n2Cc2ccccc2)cc1 [CBK267215]
116

# lookup: viability at 28.5 h, 10 µM of O=C(NC1CC2(CCOCC2)Oc2ccccc21)c1ccco1 (stereo not drawn) [CBK285378]
98

Returns the measured viability at 28.5 h, 10 µM for the input molecule. Input: COc1cc(/C=C2/C(=O)N(c3ccc(Cl)c(C(=O)O)c3)N=C2C)ccc1Oc1nc2c(c(=O)n(C)c(=O)n2C)n1C [CBK262962]
91.1

Give its viability at 28.5 h, 10 µM value. Item: O=C(C1CC2C=CC1C21CC1)N1CCN(Cc2ccccn2)CC1 (stereo not drawn) [CBK281443]
86.3

----------
experiment: in vitro; conditions: human, hela cells, % viability
metric: viability at 28.5 h, 10 µM (%)
// units = %; emit number, no label

Below, 4 compounds whose answers are already recorded.
COc1ccc(OCCCn2ccn(C(=O)CCCOc3ccc(Cl)cc3)c2=O)cc1
94.3
COc1ccc(-c2nc(=S)c3c(n2CCCN(C)C)CC(C)(C)OC3)cc1
104
O=C(CN1CCC(c2cncc(-c3cccc(C(F)(F)F)c3)n2)CC1)N1CCCC1
94.3
CC(=O)Nc1cccc(Oc2cnc(-c3ccc(OC(F)(F)F)cc3)c(N)n2)c1
91.9

Now consider the entry below.
Give the measured viability at 28.5 h, 10 µM of COC(=O)c1ccc(Cn2cc(NC(=O)NCCc3cccs3)cn2)o1 .
82.4

----------
In this section we review reported viability at 28.5 h, 10 µM values for a set of compounds.
experiment: in vitro; settings: human, hela cells, % viability
Lab book: enter the figure in %, no units written.

Example results:
CC(=O)NC(NC(=S)Nc1sc2c(c1C(N)=O)CCCC2)C(Cl)(Cl)Cl (stereo not drawn)
101
Cc1cc2c(cc1Br)NC(=O)/C2=N\O
56
COc1ccc(Cn2nc(-c3nc(C)no3)c3ccccc32)cc1
90.7
CC1CN(S(=O)(=O)c2ccc3c(c2)C(=O)c2cc(S(=O)(=O)N4CC(C)OC(C)C4)ccc2-3)CC(C)O1 (stereo not drawn)
101
COc1ccc(OC)c(NC(=O)C(C)Oc2ccccc2OC)c1 (stereo not drawn)
85.3
COc1cc(CN2CCNCC2)c2ccn(S(=O)(=O)c3ccccc3C#N)c2c1 [CBK144486T]
89.4

Give its viability at 28.5 h, 10 µM value. Item: c1nc(Nc2ccc3[nH]ccc3c2)cc(-c2ccc3c(c2)OCO3)n1
94.4

Returns the measured viability at 28.5 h, 10 µM for the input compound. Input: Cn1nc(C2CCN(Cc3ccccc3)CC2)c2cccnc21
94.9

Please give the measured viability at 28.5 h, 10 µM for this compound: Cc1cc(S(=O)(=O)NC(=O)CC2CCOc3ccccc32)c(C)o1 (stereo not drawn)
105

For the compound shown here, Cc1cc(C)cc(OCC(=O)NNC(=O)CN2C(=O)c3ccccc3C2=O)c1 , give the reported viability at 28.5 h, 10 µM.
91.4

Form field: reported viability at 28.5 h, 10 µM of C#CCNC(=O)CC[C@H]1CNC(=O)[C@@H]2[C@@H](CCN2Cc2cccs2)N1C
103

Please give the measured viability at 28.5 h, 10 µM for this compound: Cc1nc2ccc(C(=O)NCCCN3Cc4ccccc4C3)cc2[nH]1
90.3

What viability at 28.5 h, 10 µM value was documented for this compound, O=C(O)CCC(=O)Nc1ccc(Br)c2cccnc12 ?
105

Fill in the blank: the reported viability at 28.5 h, 10 µM of O=c1oc(-c2ccco2)nn1Cc1ccc([N+](=O)[O-])cc1 is ____.
94.8

Which viability at 28.5 h, 10 µM reading was recorded for the compound O=S(=O)(Nc1cc(NC2CCNC2)c2occc2c1)c1ccccc1 (stereo not drawn) [CBK066943C] ?
104

Field request: viability at 28.5 h, 10 µM | item: O=C(Cn1nc2n(c1=O)CCCCC2)NCC(O)c1ccc(F)cc1 (stereo not drawn)
95.6
